# TESTED_SYSTEM: human P-glycoprotein (P-gp, MDR1) (Homo sapiens (Human))
# Sequence (P08183 whole entry): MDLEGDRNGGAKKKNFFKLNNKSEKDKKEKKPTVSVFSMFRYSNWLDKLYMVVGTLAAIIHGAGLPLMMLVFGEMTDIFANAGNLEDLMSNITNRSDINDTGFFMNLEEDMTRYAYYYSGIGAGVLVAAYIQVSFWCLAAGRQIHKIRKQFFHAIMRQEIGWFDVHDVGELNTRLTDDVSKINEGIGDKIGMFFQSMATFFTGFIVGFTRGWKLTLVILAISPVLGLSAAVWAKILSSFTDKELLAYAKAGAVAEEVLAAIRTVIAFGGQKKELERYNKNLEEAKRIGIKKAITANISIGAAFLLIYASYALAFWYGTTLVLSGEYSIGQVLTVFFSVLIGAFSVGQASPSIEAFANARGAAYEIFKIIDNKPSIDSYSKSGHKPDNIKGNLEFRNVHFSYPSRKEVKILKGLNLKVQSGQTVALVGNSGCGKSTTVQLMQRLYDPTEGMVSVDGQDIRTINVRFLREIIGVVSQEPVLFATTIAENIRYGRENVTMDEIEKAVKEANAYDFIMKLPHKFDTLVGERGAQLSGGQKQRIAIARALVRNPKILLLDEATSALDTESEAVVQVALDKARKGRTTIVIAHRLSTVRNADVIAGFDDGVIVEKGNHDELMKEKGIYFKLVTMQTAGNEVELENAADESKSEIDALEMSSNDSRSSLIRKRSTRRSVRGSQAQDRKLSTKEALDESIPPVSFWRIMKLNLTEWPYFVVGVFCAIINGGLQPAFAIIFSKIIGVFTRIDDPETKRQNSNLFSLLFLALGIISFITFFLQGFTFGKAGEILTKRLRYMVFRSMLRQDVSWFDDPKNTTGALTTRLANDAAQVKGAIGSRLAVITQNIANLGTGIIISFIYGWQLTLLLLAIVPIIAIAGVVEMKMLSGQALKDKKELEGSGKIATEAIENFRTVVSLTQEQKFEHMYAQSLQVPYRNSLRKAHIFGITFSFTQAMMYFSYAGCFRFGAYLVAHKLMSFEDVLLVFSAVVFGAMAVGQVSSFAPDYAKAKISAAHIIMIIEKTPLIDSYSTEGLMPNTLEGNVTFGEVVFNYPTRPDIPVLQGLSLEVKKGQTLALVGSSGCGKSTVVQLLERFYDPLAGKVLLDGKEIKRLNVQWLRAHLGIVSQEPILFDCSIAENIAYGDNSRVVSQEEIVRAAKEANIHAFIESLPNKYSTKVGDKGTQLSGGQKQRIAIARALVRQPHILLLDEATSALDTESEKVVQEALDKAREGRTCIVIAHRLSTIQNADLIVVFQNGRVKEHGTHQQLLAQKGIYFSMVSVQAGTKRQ
# TEST_NAME: MDCK-MDR1 cell monolayer drug transport assay (P-gp efflux ratio)
# Format: in vitro ADME
# CONDITION_SUMMARY: pH 7.4, MDCK-MDR1 cells, 1 uM concentration of compound, read-out: Pgp Efflux Ratio, 1 uM
OBSERVATION_TYPE: efflux ratio at 2 h, 1 µM

Below are worked cases with known answers.
- COMPOUND: "COCCNc1ccn2ncc(C(=O)Nc3cc(-n4ncc(C5CN(C(=O)OC)C5)n4)ccc3C)c2c1"
  efflux ratio at 2 h, 1 µM: 8.7
- COMPOUND: "CCOC(=O)N1CC(n2nnc(-c3ccc(C)c(NC(=O)c4cnn5ccc(NC)cc45)c3)n2)C1"
  efflux ratio at 2 h, 1 µM: 15.9
- COMPOUND: "COC(=O)N1CC(n2nnc(-c3ccc(C)c(NC(=O)c4cnn5ccc(N6CC7(COC7)C6)cc45)c3)n2)C1"
  efflux ratio at 2 h, 1 µM: 15.5

1: Cc1nn(CC2(O)CCOCC2)cc1-c1ccn2ncc(C(=O)Nc3cc(-n4nnc([C@H]5C[C@@H]5F)n4)ccc3Cl)c2c1 (single isomer, unassigned)
2: Cc1ccc(-c2nnn(C3CC3)n2)cc1NC(=O)c1cnn2ccc(-c3c(C)nn(CCO)c3C)cc12
3: COC(=O)N1CC(n2nnc(-c3ccc(C)c(NC(=O)c4cnn5ccc(NCC6CCO6)cc45)c3)n2)C1 (stereo not shown)
4: COC(=O)N1CC(n2nnc(-c3ccc(C)c(NC(=O)c4cnn5ccc(NCC(C)(F)F)cc45)c3)n2)C1
Challenge: Rank order required: efflux ratio at 2 h, 1 µM, descending. Enter labels, ranked according to the request.
Response given: 3, 4, 1, 2
(3: 21.5, 4: 11.4, 1: 7, 2: 4.1)

====

# TESTED_SYSTEM: wild type c-kit (Homo sapiens (Human))
# Sequence (P10721 26-976): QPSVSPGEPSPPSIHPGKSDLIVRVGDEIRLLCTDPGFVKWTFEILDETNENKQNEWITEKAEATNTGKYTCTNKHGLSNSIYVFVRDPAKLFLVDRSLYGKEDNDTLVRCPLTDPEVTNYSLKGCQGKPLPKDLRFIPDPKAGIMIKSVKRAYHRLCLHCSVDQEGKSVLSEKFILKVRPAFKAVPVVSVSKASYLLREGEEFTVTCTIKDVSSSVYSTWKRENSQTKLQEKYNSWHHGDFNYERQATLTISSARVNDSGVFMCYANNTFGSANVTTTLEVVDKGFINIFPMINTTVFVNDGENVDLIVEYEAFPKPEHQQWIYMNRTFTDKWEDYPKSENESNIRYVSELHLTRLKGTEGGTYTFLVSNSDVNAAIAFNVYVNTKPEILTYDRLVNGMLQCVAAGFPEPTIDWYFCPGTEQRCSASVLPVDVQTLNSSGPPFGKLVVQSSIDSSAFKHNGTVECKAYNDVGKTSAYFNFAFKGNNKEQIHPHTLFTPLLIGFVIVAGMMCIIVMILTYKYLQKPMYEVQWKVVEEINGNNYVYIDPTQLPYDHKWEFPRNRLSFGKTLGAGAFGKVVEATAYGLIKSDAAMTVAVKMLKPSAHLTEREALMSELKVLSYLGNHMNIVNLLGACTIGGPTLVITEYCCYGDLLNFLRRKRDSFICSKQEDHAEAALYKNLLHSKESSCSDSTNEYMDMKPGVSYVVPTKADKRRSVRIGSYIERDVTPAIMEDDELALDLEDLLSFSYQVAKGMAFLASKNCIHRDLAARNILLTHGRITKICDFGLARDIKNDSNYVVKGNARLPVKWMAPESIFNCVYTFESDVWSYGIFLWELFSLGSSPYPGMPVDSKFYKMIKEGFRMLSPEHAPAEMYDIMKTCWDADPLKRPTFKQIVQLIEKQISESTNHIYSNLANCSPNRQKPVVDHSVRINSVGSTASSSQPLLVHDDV
# TEST_NAME: PathScan phospho c-kit (Tyr719) sandwich ELISA in SCF-stimulated M-07e cells (pKIT assay)
# Assay type: cell-based
# CONDITION_SUMMARY: ELISA assay (values not marked *)
OBSERVATION_TYPE: IC50 (nM)

- COMPOUND: "COCCNc1ccn2ncc(C(=O)Nc3cc(-n4nnc(C5CN(C(=O)OC)C5)n4)ccc3Cl)c2c1"
  UNIT_ANNOTATION: "nM"
  IC50: 6.4
- COMPOUND: "COC[C@@](C)(O)Cn1cc(-c2ccn3ncc(C(=O)Nc4cc(-c5nnn(C6CC6)n5)ccc4C)c3c2)cn1 (single isomer, unassigned)"
  UNIT_ANNOTATION: "nM"
  IC50: 1.6
- COMPOUND: "Cc1ccc(-c2nnn(C3CC3)n2)cc1NC(=O)c1cnn2ccc(-c3cn([C@H](C)[C@H](C)O)nc3C)cc12 (single isomer, unassigned)"
  UNIT_ANNOTATION: "nM"
  IC50: 0.3
- COMPOUND: "Cc1ccc(-c2nnn(C3CN(S(C)(=O)=O)C3)n2)cc1NC(=O)c1cnn2ccccc12"
  UNIT_ANNOTATION: "nM"
  IC50: 35.4
- COMPOUND: "COC[C@@](C)(O)Cn1cc(-c2ccn3ncc(C(=O)Nc4cc(-c5nnn(C6CC6)n5)c(F)cc4C)c3c2)c(C)n1 (single isomer, unassigned)"
  UNIT_ANNOTATION: "nM"
  IC50: 0.7
- COMPOUND: "COC(=O)N1CC(n2nnc(-c3ccc(C)c(NC(=O)c4cnn5ccc(COCC(F)F)cc45)c3)n2)C1"
  UNIT_ANNOTATION: "nM"
  IC50: 18
- COMPOUND: "COCCNc1ccc2c(C(=O)Nc3cc(-c4nnn(C5CN(C(=O)OC)C5)n4)ccc3Cl)cnn2c1 [Example 164]"
  UNIT_ANNOTATION: "nM"
  IC50: 8
- COMPOUND: "COC(=O)N1CC(n2nnc(-c3ccc(C)c(NC(=O)c4cnn5ccc(NCCO)cc45)c3)n2)C1"
  UNIT_ANNOTATION: "nM"
  IC50: 17.1

a: Cc1cc(C)c(-c2nnn(C3CC(F)(F)C3)n2)cc1NC(=O)c1cnn2ccc(N3CCOCC3)cc12
b: CCn1nnc(-c2cc(NC(=O)c3cnn4ccc(-c5cn(C[C@H](O)COC)nc5C)cc34)c(Cl)cc2F)n1
c: Cc1cnn(-c2ccc(C)c(NC(=O)c3cnn4ccc(-c5cnn(CCO)c5)cc34)c2)n1
d: COC(=O)N1CC(n2nnc(-c3ccc(C)c(NC(=O)c4cnn5ccc(N6CCN(C7COC7)CC6)cc45)c3)n2)C1
Challenge: Exam item: list the entries in increasing order of IC50. Answer format: the labels, ordered as requested.
Response given: b, c, a, d
(b: 0.2 nM, c: 4 nM, a: 22.1 nM, d: 63.9 nM)

====

# TESTED_SYSTEM: wild type c-kit (Homo sapiens (Human))
# TEST_NAME: PathScan phospho c-kit (Tyr719) sandwich ELISA in SCF-stimulated M-07e cells (pKIT assay)
# Format: cell-based
# CONDITION_SUMMARY: ELISA assay (values not marked *)
pIC50: −log10 of the molar value.
OBSERVATION_TYPE: pIC50

- COMPOUND: "COCCNc1cc2c(C(=O)Nc3cc(-c4nnn(C5CN(C(=O)OC)C5)n4)ccc3C)cnn2cc1C"
  TESTED_SYSTEM: "wild type c-kit (Homo sapiens (Human))"
  pIC50: 7.63

P: Cc1cc(Cl)c(NC(=O)c2cnn3ccc(-c4cnn(CC(C)(C)O)c4)cc23)cc1-c1nnn(C2CC2)n1
Q: COCCNc1ccn2ncc(C(=O)Nc3cc(-c4nnn(C5CC(F)(F)C5)n4)c(F)cc3C)c2c1
Challenge: From the items above, decide which of P and Q has the lower pIC50 reading. Write the label of whichever entry you select.
Response given: Q
(Q: 8.46, P: 8.72)

P: COC(=O)N1CC(n2nnc(-c3ccc(C)c(NC(=O)c4cnn5cc(N6CCOCC6)ccc45)c3)n2)C1
Q: COC(=O)N1CC(c2cnn(-c3ccc(C)c(NC(=O)c4cnn5ccc(NC6COC6)cc45)c3)n2)C1
Challenge: Lower pIC50: P or Q ? Label of pick, please.
Response given: P
(P: 7.70, Q: 8.12)

A: COCCNc1ccn2ncc(C(=O)Nc3cc(-c4nnn(C5CC6(CCC6)C5)n4)ccc3C)c2c1
B: Cc1ccc(-c2nnn([C@H]3C[C@H](C(F)(F)F)C3)n2)cc1NC(=O)c1cnn2ccc(NCCO)cc12
Challenge: Between A and B , whose recorded pIC50 is greater? Reply with the label of the item you choose.
Response given: A
(A: 8.47, B: 7.92)

a: Cc1ccc(-c2nnn([C@H]3C[C@@H](C(F)(F)F)C3)n2)cc1NC(=O)c1cnn2ccc(N3CCN(CCO)CC3)cc12
b: Cc1ccc(-c2nnn(C3CN(S(=O)(=O)C4CCOC4)C3)n2)cc1NC(=O)c1cnn2ccccc12 (centres unmarked)
c: CCn1nnc(-c2ccc(C)c(NC(=O)c3cnn4ccccc34)c2)n1
Challenge: Please give the order of these compounds when sorted by pIC50, largest value leading. Please reply with the labels ordered as requested. Many thanks.
Response given: a, c, b
(a: 8.24, c: 7.54, b: 7.11)

====

# TESTED_SYSTEM: Exon 11 KIT (Homo sapiens (Human), UniProt P10721, V560G)
# Sequence (P10721 26-976 V560G): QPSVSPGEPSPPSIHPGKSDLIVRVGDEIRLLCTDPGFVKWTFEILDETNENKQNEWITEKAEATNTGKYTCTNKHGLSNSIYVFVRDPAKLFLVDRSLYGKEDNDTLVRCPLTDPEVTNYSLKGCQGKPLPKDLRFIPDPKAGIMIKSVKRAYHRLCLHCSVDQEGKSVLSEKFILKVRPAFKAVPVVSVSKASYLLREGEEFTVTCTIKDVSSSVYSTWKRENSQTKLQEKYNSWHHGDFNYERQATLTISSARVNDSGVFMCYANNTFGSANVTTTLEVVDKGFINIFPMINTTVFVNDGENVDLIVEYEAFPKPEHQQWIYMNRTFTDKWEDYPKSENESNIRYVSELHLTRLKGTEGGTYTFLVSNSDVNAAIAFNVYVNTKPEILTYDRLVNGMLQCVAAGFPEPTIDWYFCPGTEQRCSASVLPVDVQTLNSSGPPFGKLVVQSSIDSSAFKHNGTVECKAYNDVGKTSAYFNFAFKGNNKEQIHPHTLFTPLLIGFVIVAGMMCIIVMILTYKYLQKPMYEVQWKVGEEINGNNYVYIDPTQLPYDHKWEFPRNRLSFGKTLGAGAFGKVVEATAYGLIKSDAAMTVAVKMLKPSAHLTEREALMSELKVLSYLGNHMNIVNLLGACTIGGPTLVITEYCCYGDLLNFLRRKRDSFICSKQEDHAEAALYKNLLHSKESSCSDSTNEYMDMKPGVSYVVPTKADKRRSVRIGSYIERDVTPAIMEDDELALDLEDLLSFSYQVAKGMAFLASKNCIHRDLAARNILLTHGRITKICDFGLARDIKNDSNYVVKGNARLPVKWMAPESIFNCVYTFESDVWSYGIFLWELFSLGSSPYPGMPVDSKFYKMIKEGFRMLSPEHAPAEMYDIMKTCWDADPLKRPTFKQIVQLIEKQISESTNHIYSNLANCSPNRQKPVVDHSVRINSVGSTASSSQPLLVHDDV
# TEST_NAME: Exon 11 HMC1.1 autophosphorylation assay (Phospho-Y719 c-KIT ELISA)
# CONDITION_SUMMARY: 90 minutes, read-out: IC50 HMC1.1 pKIT
OBSERVATION_TYPE: IC50 (nM)

A selection of reference data follows.
- SMILES: "Cc1cc(F)c(-c2nnn(C3CC3)n2)cc1NC(=O)c1cnn2ccc(-c3cn(CC(C)(C)O)nc3C)cc12"
  QUANTITATIVE_READOUT: 0.9
- SMILES: "Cc1nn(C[C@H](C)O)cc1-c1ccn2ncc(C(=O)Nc3cc(-c4nnn(C5CC5)n4)ccc3Cl)c2c1"
  QUANTITATIVE_READOUT: 0.2
- SMILES: "CCn1nnc(-c2ccc(Cl)c(NC(=O)c3cnn4ccc(-c5cn(C[C@H](O)COC)nc5C)cc34)c2)n1"
  QUANTITATIVE_READOUT: 0.2
- SMILES: "COCCNc1ccn2ncc(C(=O)Nc3cc(-c4nnn(C5CN(C(=O)OC)C5)n4)ccc3C)c2c1"
  QUANTITATIVE_READOUT: 1

a: COC[C@@H](O)Cn1cc(-c2ccn3ncc(C(=O)Nc4cc(-c5nnn(C6CC6)n5)ccc4Cl)c3c2)c(C)n1
b: COC(=O)N1CC(c2cnn(-c3ccc(C)c(NC(=O)c4cnn5ccc(N6CCN(C)CC6)cc45)c3)n2)C1
c: COC[C@@H](O)Cn1cc(-c2ccn3ncc(C(=O)Nc4cc(-c5nnn(C6CC6)n5)ccc4Cl)c3c2)cn1
Challenge: # sort list by recorded IC50, greatest to least Answer format: the labels, ordered as requested.
Response given: b, c, a
(b: 6.4 nM, c: 0.7 nM, a: 0.2 nM)
